Tested on: 494315-158-R-J1-PDC complex spheroid growth, percent test/control
TEST DETAILS: Anticancer human tumor 494315-158-R-J1-PDC patient-derived soft tissue sarcoma cell line growth inhibition [Asc]
CONDITION SUMMARY: second compound 0.316 µM; first compound 0.316 µM; hits give low values
METRIC: viability, T/C (%)
Give bare numbers, in %.

COc1c(OCCCN2CCOCC2)ccc2c3n(c(=NC(=O)c4cnc(N)nc4)nc12)CCN3 + Cc1c(S(C)(=O)=O)c(-c2cc(F)cc(N3CCN(c4ccc(NS(=O)(=O)c5ccc(NC(CCN6CCC(C(=O)OCCCP(=O)(O)O)CC6)CSc6ccccc6)c(S(=O)(=O)C(F)(F)F)c5)cc4)CC3)c2)c(-c2ccc(Cl)cc2)n1C(C)C: 15.8
O=C(c1ccc(F)c(F)c1Nc1ccc(I)cc1F)N1CC(O)([C@@H]2CCCCN2)C1 + Cc1c(S(C)(=O)=O)c(-c2cc(F)cc(N3CCN(c4ccc(NS(=O)(=O)c5ccc(NC(CCN6CCC(C(=O)OCCCP(=O)(O)O)CC6)CSc6ccccc6)c(S(=O)(=O)C(F)(F)F)c5)cc4)CC3)c2)c(-c2ccc(Cl)cc2)n1C(C)C: 55.8

Please find the next molecule below.
Given C=CC(=O)N1CCN(c2nc(=O)n(-c3c(C)ccnc3C(C)C)c3nc(-c4c(O)cccc4F)c(F)cc23)C(C)C1 (stereo not drawn) + CNC(C)C(=O)NC1CN(S(=O)(=O)c2cccc(S(=O)(=O)N3CCC4CCC(C(=O)NC(c5ccccc5)c5ccccc5)N4C(=O)C(NC(=O)C(C)NC)C3)c2)CCC2CCC(C(=O)NC(c3ccccc3)c3ccccc3)N2C1=O , state its recorded viability, T/C.
46.2

###

System: 494315-158-R-J1-PDC complex spheroid growth, percent test/control
TEST DETAILS: Anticancer human tumor 494315-158-R-J1-PDC cell line growth inhibition [Asc];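 also: compound exposure lasted seven days after spheroids formed for three days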
CONDITION SUMMARY: second compound 0.949 µM; first compound 1 µM; hits give low values
For each of the compounds below, state its viability, T/C.
Give bare numbers, in %.

C=CC(=O)N1CCN(c2nc(=O)n(-c3c(C)ccnc3C(C)C)c3nc(-c4c(O)cccc4F)c(F)cc23)C(C)C1 (configuration not stated) + CCN1C(C(=O)NC23CCC(C(=O)O)(CC2)CC3)C(c2cccc(Cl)c2F)C2(C(=O)Nc3cc(Cl)ccc32)C12CCCCC2: 108

Given O=C(c1cc(Cc2n[nH]c(=O)c3ccccc23)ccc1F)N1CCN(C(=O)C2CC2)CC1 + CCN1C(C(=O)NC23CCC(C(=O)O)(CC2)CC3)C(c2cccc(Cl)c2F)C2(C(=O)Nc3cc(Cl)ccc32)C12CCCCC2 , state its recorded viability, T/C.
95.9

###

Tested on: 494315-158-R-J1-PDC complex spheroid growth, percent test/control
TEST DETAILS: Anticancer human tumor 494315-158-R-J1-PDC cell line growth inhibition [Asc];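 also: compound exposure lasted seven days after spheroids formed for three days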
CONDITION SUMMARY: second compound 0.316 µM; first compound 0.00316 µM; hits give low values
Description: Multicellular complex tumor spheroid response to apoptosis pathway targeting inhibitors Alrizomadlin, Pelcitoclax, and Dasminapant in combination with a variety of drugs and investigational agents in selected tumor cell lines […] Compounds. […] If the clinical Cmax for an agent had not been determined, the highest concentration tested was 10 microM. […]
METRIC: viability, T/C

NC1CCC(NC2CC2c2ccccc2)CC1 (configuration not stated) + CNC(C)C(=O)NC1CN(S(=O)(=O)c2cccc(S(=O)(=O)N3CCC4CCC(C(=O)NC(c5ccccc5)c5ccccc5)N4C(=O)C(NC(=O)C(C)NC)C3)c2)CCC2CCC(C(=O)NC(c3ccccc3)c3ccccc3)N2C1=O: 42.1%

Please find the next compound below.
What measured viability, T/C is associated with Cn1ncnc1[C@H]1c2n[nH]c(=O)c3cc(F)cc(c23)N[C@@H]1c1ccc(F)cc1 + Cc1c(S(C)(=O)=O)c(-c2cc(F)cc(N3CCN(c4ccc(NS(=O)(=O)c5ccc(NC(CCN6CCC(C(=O)OCCCP(=O)(O)O)CC6)CSc6ccccc6)c(S(=O)(=O)C(F)(F)F)c5)cc4)CC3)c2)c(-c2ccc(Cl)cc2)n1C(C)C on 494315-158-R-J1-PDC complex spheroid growth, percent test/control?
63.9%
